- Test system: LoVo (colon cancer)
- test-details: Antiproliferative SRB assay, 72 h exposure
- Format: cell-based, human
- experimental-conditions: Homo sapiens, LoVo; SRB, 72 h; mean ± SD of 3–5 experiments; n.a. = no activity in concentration of 5, 25, 125, 625 μM
Below, each entry is listed alongside its reported IC50.
Answer format: numeric, µM implied, no suffix.

Reference set (5 entries):
| compound | assay-endpoint | reported-value |
| --- | --- | --- |
| C=CC(C)(CCC=C(C)C)CC(=O)O (stereo not drawn) [1 (GERA), 3,7-dimethyl-3-vinyloct-6-enoic acid] | IC50 | 329 |
| C=CC(C)(CCC=C(C)C)CC(=O)OC[C@H](COP(=O)([O-])OCC[N+](C)(C)C)OC(=O)CC(C)(C=C)CCC=C(C)C (stereo partly drawn) [Compound 6a] | IC50 | 230 |
| CCC/C=C1/C(C)(C)CCCC1(C)CC(=O)OC[C@H](COP(=O)([O-])OCC[N+](C)(C)C)OC(=O)CCCCCCCCCCCCCCC (stereo partly drawn) [Compound 9c] | IC50 | 61.5 |
| CCC/C=C1/C(C)(C)CCCC1(C)CC(=O)OC[C@H](COP(=O)([O-])OCC[N+](C)(C)C)OC(=O)CC1(C)CCCC(C)(C)/C1=C/CCC (stereo partly drawn) [Compound 6c] | IC50 | 53.1 |
| C=CC(C)(CCC=C(C)C)CC(=O)OC[C@H](COP(=O)([O-])OCC[N+](C)(C)C)OC(=O)CCCCCCCCCCCCCCC (stereo partly drawn) [Compound 9a] | IC50 | 32.8 |

Turning now to a further compound:
Challenge: Tell me the measured IC50 of C=CC(C)(CC/C=C(\C)CCC=C(C)C)CC(=O)OC[C@H](COP(=O)([O-])OCC[N+](C)(C)C)OC(=O)CCCCCCCCCCCCCCC (stereo partly drawn) [Compound 9b] , please.
Response given: 269

---

Listed here: items and their measured IC50.
- System: LoVo/DX (colon cancer drug resistant)
- test-details: Antiproliferative SRB assay, 72 h exposure
- Type: cell-based, human
- experimental-conditions: Homo sapiens, LoVo/DX, mean ± SD of 3–5 experiments, n.a. = no activity in concentration of 5, 25, 125, 625 μM

Guide cases for IC50, answers given:
| molecule | IC50 |
| --- | --- |
| CCCCCCCCCCCCCCCC(=O)O [Palmitic acid, reference compound] | 86.3 µM |
| CCC/C=C1/C(C)(C)CCCC1(C)CC(=O)O[C@H](COC(=O)CCCCCCCCCCCCCCC)COP(=O)([O-])OCC[N+](C)(C)C (stereo partly shown) [Compound 7c] | 111 µM |
| C=CC(C)(CC/C=C(\C)CCC=C(C)C)CC(=O)OC[C@H](COP(=O)([O-])OCC[N+](C)(C)C)OC(=O)CC(C)(C=C)CC/C=C(\C)CCC=C(C)C (stereo partly shown) [Compound 6b] | 57.6 µM |
| CCC/C=C1/C(C)(C)CCCC1(C)CC(=O)OC[C@H](COP(=O)([O-])OCC[N+](C)(C)C)OC(=O)CCCCCCCCCCCCCCC (stereo partly shown) [Compound 9c] | 75.5 µM |
| C=CC(C)(CC/C=C(\C)CCC=C(C)C)CC(=O)O[C@H](COC(=O)CCCCCCCCCCCCCCC)COP(=O)([O-])OCC[N+](C)(C)C (stereo partly shown) [Compound 7b] | 486 µM |

Challenge: Request the reported IC50 associated with CCC/C=C1/C(C)(C)CCCC1(C)CC(=O)OC[C@@H](O)COP(=O)([O-])OCC[N+](C)(C)C (stereo partly shown) [Compound 8c]
Response given: 382 µM

Challenge: Entry C=CC(C)(CCC=C(C)C)CC(=O)OC[C@@H](O)COP(=O)([O-])OCC[N+](C)(C)C (stereo partly shown) [Compound 8a] : reported IC50 = ?
Response given: 469 µM

---

- Tested on: LoVo (colon cancer)
- test-details: Antiproliferative SRB assay, 72 h exposure
- Type: cell-based, human
- experimental-conditions: Homo sapiens, LoVo; SRB, 72 h; mean ± SD of 3–5 experiments; n.a. = no activity in concentration of 5, 25, 125, 625 μM
assay-endpoint: IC50

Some compounds with recorded IC50:
| compound | IC50 |
| --- | --- |
| C=CC(C)(CC/C=C(\C)CCC=C(C)C)CC(=O)O (stereo not shown) | 99.2 µM |
| C=CC(C)(CC/C=C(\C)CCC=C(C)C)CC(=O)OC[C@@H](O)COP(=O)([O-])OCC[N+](C)(C)C (stereo partly shown) | 241 µM |
| CCCCCCCCCCCCCCCC(=O)O [Palmitic acid, reference compound] | 42.1 µM |
| C=CC(C)(CC/C=C(\C)CCC=C(C)C)CC(=O)OC[C@H](COP(=O)([O-])OCC[N+](C)(C)C)OC(=O)CC(C)(C=C)CC/C=C(\C)CCC=C(C)C (stereo partly shown) | 13.6 µM |
| C=CC(C)(CCC=C(C)C)CC(=O)O[C@H](COC(=O)CCCCCCCCCCCCCCC)COP(=O)([O-])OCC[N+](C)(C)C (stereo partly shown) | 57.4 µM |
| CCC/C=C1/C(C)(C)CCCC1(C)CC(=O)O[C@H](COC(=O)CCCCCCCCCCCCCCC)COP(=O)([O-])OCC[N+](C)(C)C (stereo partly shown) | 54.4 µM |

Turning now to a further compound:
Challenge: Please report the recorded IC50 for CCCC=C1C(C)(C)CCCC1(C)CC(=O)O (stereo not shown) .
Response given: 173 µM

---

Quick reference for pIC50 among some compounds
- Tested on: LoVo/DX (colon cancer drug resistant)
- test-details: Antiproliferative SRB assay, 72 h exposure
- Type: cell-based, human
- experimental-conditions: Homo sapiens, LoVo/DX, mean ± SD of 3–5 experiments, n.a. = no activity in concentration of 5, 25, 125, 625 μM
- Procedure: The biological studies were performed in vitro using human cancer cell lines: MV4-11 (human biphenotypic B myelomonocytic leukaemia), A-549 (non-small cell lung cancer), MCF-7 (breast cancer), LoVo (colon cancer), LoVo/DX (colon cancer drug resistant), HepG2 (liver cancer) and BALB/3T3 (normal mice fibroblasts). These lines were obtained from American Type Culture Collection (Rockville, Maryland, U.S.A.). […]
In plain terms, pIC50 is the concentration in mol/L turned into minus its base-10 logarithm.

These solved cases illustrate the format of a correct answer.
| compound | pIC50 |
| --- | --- |
| C=CC(C)(CC/C=C(\C)CCC=C(C)C)CC(=O)OC[C@@H](O)COP(=O)([O-])OCC[N+](C)(C)C (stereo partly shown) [Compound 8b] | 3.55 |
| CCCC=C1C(C)(C)CCCC1(C)CC(=O)O (stereo not shown) [3 (DAA)] | 3.96 |
| C=CC(C)(CC/C=C(\C)CCC=C(C)C)CC(=O)O (stereo not shown) [2 (FARA)] | 4.06 |

Attention now shifts to the item below.
Challenge: Request the reported pIC50 associated with CCC/C=C1/C(C)(C)CCCC1(C)CC(=O)OC[C@H](COP(=O)([O-])OCC[N+](C)(C)C)OC(=O)CC1(C)CCCC(C)(C)/C1=C/CCC (stereo partly shown) [Compound 6c]
Response given: 4.24

---

- Test system: drug resistant LOVO/DX line vs drug sensitive LoVo line
- test-details: Resistance index (RI): IC50 LOVO/DX divided by IC50 LoVo
- Format: cell-based, human
- experimental-conditions: RI = IC50 resistant line / IC50 non-resistant line; 0<RI<2 able to overcome drug resistance; 2<RI<10 moderate ability; RI>10 no influence
// reported Resistance index (RI) per item
When you answer, write just the number.

| compound | Resistance index (RI) |
| --- | --- |
| COc1cccc2c1C(=O)c1c(O)c3c(c(O)c1C2=O)C[C@@](O)(C(=O)CO)C[C@@H]3O[C@H]1C[C@H](N)[C@H](O)[C@H](C)O1 [Doxorubicin, doxorubicin, reference compound] | 55.81 |
| C=CC(C)(CC/C=C(\C)CCC=C(C)C)CC(=O)OC[C@@H](O)COP(=O)([O-])OCC[N+](C)(C)C (stereo partly shown) | 1.99 |
| C=CC(C)(CC/C=C(\C)CCC=C(C)C)CC(=O)O (stereo not shown) | 0.88 |
| C=CC(C)(CCC=C(C)C)CC(=O)OC[C@@H](O)COP(=O)([O-])OCC[N+](C)(C)C (stereo partly shown) | 1.61 |
| CCC/C=C1/C(C)(C)CCCC1(C)CC(=O)O[C@H](COC(=O)CCCCCCCCCCCCCCC)COP(=O)([O-])OCC[N+](C)(C)C (stereo partly shown) | 1.35 |
| CCCC=C1C(C)(C)CCCC1(C)CC(=O)O (stereo not shown) | 0.63 |

Proceed to the following item.
Challenge: Please give the measured Resistance index (RI) for this compound: C=CC(C)(CC/C=C(\C)CCC=C(C)C)CC(=O)O[C@H](COC(=O)CCCCCCCCCCCCCCC)COP(=O)([O-])OCC[N+](C)(C)C (stereo partly shown)
Response given: 1.16
